# target: UniProt P51677
# test-protocol: In vitro binding affinity against C-C chemokine receptor type 3 expressing in rat Y3 cell line
pKi: −log10 of the molar value.
Use 7 as the dividing line for pKi, with the line itself on the yes (1) side and lower values as no (0).

Reference set, count: 3
{"molecule": "CO[C@@H]1CN(C2CCN(C(=O)c3cnc4ccccc4n3)CC2)CC[C@@H]1Cc1ccc(Cl)c(Cl)c1", "assigned-label": "yes (1)"}
{"molecule": "CO[C@@H]1CN(C2CCN(C(=O)c3nccc4ccccc34)CC2)CC[C@@H]1Cc1ccc(Cl)c(Cl)c1", "assigned-label": "yes (1)"}
{"molecule": "C[C@@H]1CN(C2CCN(C(=O)c3ccc4ncccc4c3)CC2)CC[C@@H]1Cc1ccc(Cl)c(Cl)c1 (stereo in doubt)", "assigned-label": "no (0)"}

Request: Could you tell me if the measured pKi of `CS(=O)(=O)NC[C@@H]1CN(C2CCN(C(=O)c3ccc4ncccc4c3)CC2)CC[C@@H]1Cc1ccc(Cl)c(Cl)c1` reaches 7 or more?
Result: no (0)

----------
# target: UniProt P51677
# test-protocol: In vitro binding affinity against C-C chemokine receptor type 3 expressing in rat Y3 cell line
measurement-kind: pKi
One number for each entry, as −log10 of the molar value.

Example cases with answers are listed next.
{"compound": "O=C(c1cccc2cccnc12)N1CCC(N2CCC(Cc3ccc(Cl)c(Cl)c3)CC2)CC1", "value": 7.17}
{"compound": "O=C(c1ccc2ncccc2c1)N1CCC(N2CCC(Cc3ccc(Cl)c(Cl)c3)CC2)CC1", "value": 7.52}
{"compound": "Cc1ccccc1CC(=O)N1CCC(N2CCC(Cc3ccc(Cl)cc3F)CC2)CC1", "value": 6.84}

Fill in pKi for each of the 5 compounds listed.
1. COC[C@@H]1CN(C2CCN(C(=O)c3ccc4ncccc4c3)CC2)CC[C@@H]1Cc1ccc(Cl)c(Cl)c1 (stereo in doubt; 14o)
2. Cc1ccccc1CC(=O)N1CCC(N2CCC(Cc3cc(Cl)cc(Cl)c3)CC2)CC1
3. CCO[C@@H]1CN(C2CCN(C(=O)c3ccc4ncccc4c3)CC2)CC[C@@H]1Cc1ccc(Cl)c(Cl)c1
4. Cc1ccccc1CC(=O)N1CCC(N2CCC(Cc3ccc(Cl)c(F)c3)CC2)CC1
5. CO[C@@H]1CN(C2CCN(C(=O)c3ccc4ncccc4c3)CC2)CC[C@@H]1Cc1ccc(Cl)c(Cl)c1 (stereo in doubt; 14h)

Result:
[6.40, 6.03, 7.48, 6.72, 8.11]

----------
# test-protocol: AUC (10 mpk po) was determined in rats
# Assay type: ADME, organism-based, Plasma
# test-settings: rat, in vivo, 10 mg/kg
measurement-kind: AUC (ng·h/mL)
Give bare numbers, in ng·h/mL.

Request: Value lookup for AUC; key = O=C(c1ccc2ncccc2c1)N1CCC(N2CC[C@H](Cc3ccc(Cl)c(Cl)c3)[C@H](CO)C2)CC1 (stereo in doubt; 14n)
Result: 1340

----------
# target: C-C chemokine receptor type 3 (Homo sapiens, UniProt P51677)
# Sequence (P51677 whole entry): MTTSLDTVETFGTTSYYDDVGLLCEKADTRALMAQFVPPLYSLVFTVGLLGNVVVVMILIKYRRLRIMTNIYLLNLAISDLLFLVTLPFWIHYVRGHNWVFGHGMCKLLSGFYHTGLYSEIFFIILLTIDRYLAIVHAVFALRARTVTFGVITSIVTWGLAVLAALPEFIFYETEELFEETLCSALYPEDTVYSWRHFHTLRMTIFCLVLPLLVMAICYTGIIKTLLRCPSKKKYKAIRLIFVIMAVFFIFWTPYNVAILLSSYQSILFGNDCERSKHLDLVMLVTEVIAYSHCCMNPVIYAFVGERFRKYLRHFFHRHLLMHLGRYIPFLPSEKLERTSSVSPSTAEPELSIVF
# test-protocol: In vitro binding affinity against C-C chemokine receptor type 3 expressing in rat Y3 cell line
Kindly supply the reported pKi values for the records listed here.
Answers are plain numbers, as −log10 of the molar value.

{"molecule": "Nc1ccc(C(=O)N2CCC(N3CCC(Cc4ccc(Cl)c(Cl)c4)CC3)CC2)cc1", "target": "C-C chemokine receptor type 3 (Homo sapiens, UniProt P51677)", "value": 6.87}
{"molecule": "CC(=O)NC[C@@H]1CN(C2CCN(C(=O)c3ccc4ncccc4c3)CC2)CC[C@@H]1Cc1ccc(Cl)c(Cl)c1", "target": "C-C chemokine receptor type 3 (Homo sapiens, UniProt P51677)", "value": 6.69}

Fill in pKi for each of the 3 molecules listed.
1. C[C@@H]1CN(C2CCN(C(=O)c3ccc4ncccc4c3)CC2)CC[C@@H]1Cc1ccc(Cl)c(Cl)c1 (stereo in doubt; 14a)
2. Cc1ccccc1CC(=O)N1CCC(N2CCC(Cc3ccc(Cl)cc3)CC2)CC1
3. Cc1ccccc1NC(=O)N1CCC(N2CCC(Cc3ccc(Cl)c(Cl)c3)CC2)CC1

Result:
[7.85, 6.85, 7.00]

Fill in pKi for each of the 6 molecules listed.
1. Cc1ccccc1CC(=O)N1CCC(N2CCC(Cc3cc(F)cc(F)c3)CC2)CC1
2. Cc1ccccc1CC(=O)N1CCC(N2CCC(Cc3ccc(Cl)c(Cl)c3)CC2)CC1
3. CO[C@@H]1CN(C2CCN(C(=O)c3ccc4nccnc4c3)CC2)CC[C@@H]1Cc1ccc(Cl)c(Cl)c1
4. CO[C@@H]1CN(C2CCN(C(=O)c3cnnc4ccccc34)CC2)CC[C@@H]1Cc1ccc(Cl)c(Cl)c1
5. CO[C@@H]1CN(C2CCN(C(=O)c3ccc4ncccc4c3)CC2)CC[C@@H]1Cc1ccc(Cl)c(Cl)c1 (stereo in doubt; 15b)
6. Cc1ccccc1CC(=O)N1CCC(N2CCC(Cc3ccc(Cl)cc3Cl)CC2)CC1

Result:
5.65
7.40
7.32
7.07
7.96
7.25

----------
# Tested on: Cell line
# test-protocol: Tested for human eosinophil chemotaxis assay
measurement-kind: IC50
Please answer using a numeric value trailed by its unit.

Request: IC50 of O=C(c1ccc2ncccc2c1)N1CCC(N2CC[C@H](Cc3ccc(Cl)c(Cl)c3)[C@H](CO)C2)CC1 (stereo in doubt; 14n) on Cell line?
Result: 160 nM

----------
# target: C-C chemokine receptor type 3 (Homo sapiens) (UniProt P51677)
# test-protocol: Percent inhibition (1 uM) against CC chemokine receptor 3 expressing in rat Y3 cell line
# Type: cell-based
measurement-kind: inhibition (%)
One number for each entry, in %.

Example cases with answers are listed next.
{"structure-string": "NC(=O)[C@@H]1CN(C2CCN(C(=O)c3ccc4ncccc4c3)CC2)CC[C@@H]1Cc1ccc(Cl)c(Cl)c1", "inhibition, %": 29}
{"structure-string": "Cc1ccccc1CC(=O)N1CCC(N2CCC(Cc3ccccc3Cl)CC2)CC1", "inhibition, %": 20}
{"structure-string": "CCO[C@@H]1CN(C2CCN(C(=O)c3ccc4ncccc4c3)CC2)CC[C@@H]1Cc1ccc(Cl)c(Cl)c1", "inhibition, %": 32}

Switching to the query record.
Request: Value lookup for inhibition; key = `N#C[C@@H]1CN(C2CCN(C(=O)c3ccc4ncccc4c3)CC2)CC[C@@H]1Cc1ccc(Cl)c(Cl)c1`
Result: 15

----------
# target: C-C chemokine receptor type 3 (Homo sapiens)
# Sequence (P51677 whole entry): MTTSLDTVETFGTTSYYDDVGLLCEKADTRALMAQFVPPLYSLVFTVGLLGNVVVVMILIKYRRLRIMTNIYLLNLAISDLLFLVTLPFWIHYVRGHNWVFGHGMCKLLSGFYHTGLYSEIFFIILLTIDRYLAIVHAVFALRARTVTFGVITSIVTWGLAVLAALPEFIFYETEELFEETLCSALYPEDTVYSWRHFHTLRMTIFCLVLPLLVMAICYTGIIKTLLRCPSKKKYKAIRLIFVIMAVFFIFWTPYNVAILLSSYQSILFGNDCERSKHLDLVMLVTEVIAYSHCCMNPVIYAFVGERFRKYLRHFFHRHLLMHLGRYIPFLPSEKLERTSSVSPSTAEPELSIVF
# test-protocol: In vitro binding affinity against C-C chemokine receptor type 3 expressing in rat Y3 cell line
Kindly supply the reported pKi values for the records listed here.
Numbers only, as −log10 of the molar value.

Example cases with answers are listed next.
{"compound": "COC[C@@H]1CN(C2CCN(C(=O)c3ccc4ncccc4c3)CC2)CC[C@@H]1Cc1ccc(Cl)c(Cl)c1 (stereo in doubt; 14p)", "pKi": 7.39}
{"compound": "CO[C@@H]1CN(C2CCN(C(=O)c3ccc4cnccc4n3)CC2)CC[C@@H]1Cc1ccc(Cl)c(Cl)c1", "pKi": 7.46}
{"compound": "CO[C@@H]1CN(C2CCN(C(=O)c3ccc4cccnc4n3)CC2)CC[C@@H]1Cc1ccc(Cl)c(Cl)c1", "pKi": 7.82}
{"compound": "C=C[C@@H]1CN(C2CCN(C(=O)c3ccc4ncccc4c3)CC2)CC[C@@H]1Cc1ccc(Cl)c(Cl)c1", "pKi": 7.64}
{"compound": "Cc1ccccc1CC(=O)N1CCC(N2CCC(Cc3cc(F)cc(Cl)c3)CC2)CC1", "pKi": 6.30}

Fill in pKi for each of the 5 compounds listed.
1. Cc1ccccc1CC(=O)N1CCC(N2CCC(Cc3ccc(F)cc3)CC2)CC1
2. COc1ccccc1CC(=O)N1CCC(N2CCC(Cc3ccc(Br)cc3)CC2)CC1
3. Cc1ccccc1CC(=O)N1CCC(N2CCC(Cc3cc(Cl)ccc3Cl)CC2)CC1
4. O=C(c1ccc2ncccc2c1)N1CCC(N2CC[C@H](Cc3ccc(Cl)c(Cl)c3)[C@H](CF)C2)CC1
5. Nc1cccc(C(=O)N2CCC(N3CCC(Cc4ccc(Cl)c(Cl)c4)CC3)CC2)c1

Result:
1. 6.95
2. 6.39
3. 6.60
4. 7.34
5. 6.91

Fill in pKi for each of the 8 compounds listed.
1. CO[C@@H]1CN(C2CCN(C(=O)c3ccc4ncccc4c3)CC2)CC[C@@H]1Cc1ccc(Cl)c(Cl)c1 (stereo in doubt; 14g)
2. CO[C@@H]1CN(C2CCN(C(=O)c3cccc4cccnc34)CC2)CC[C@@H]1Cc1ccc(Cl)c(Cl)c1
3. O=C(c1cccc2[nH]ccc12)N1CCC(N2CCC(Cc3ccc(Cl)c(Cl)c3)CC2)CC1
4. CC[C@@H]1CN(C2CCN(C(=O)c3ccc4ncccc4c3)CC2)CC[C@@H]1Cc1ccc(Cl)c(Cl)c1
5. Cc1ccccc1CC(=O)N1CCC(N2CCC(Cc3cccc(Cl)c3)CC2)CC1
6. Cc1ccccc1CC(=O)N1CCC(N2CCC(Cc3cccc(Cl)c3Cl)CC2)CC1
7. Cc1ccccc1CC(=O)N1CCC(N2CCC(Cc3ccc(Br)cc3)CC2)CC1
8. O=C(c1cnnc2ccccc12)N1CCC(N2CCC(Cc3ccc(Cl)c(Cl)c3)CC2)CC1

Result:
1. 6.49
2. 7.74
3. 6.95
4. 7.54
5. 6.89
6. 6.99
7. 7.18
8. 7.34

Fill in pKi for each of the 6 compounds listed.
1. CS(=O)(=O)N[C@@H]1CN(C2CCN(C(=O)c3ccc4ncccc4c3)CC2)CC[C@@H]1Cc1ccc(Cl)c(Cl)c1
2. COc1ccc(CC2CCN(C3CCN(C(=O)Cc4ccccc4C)CC3)CC2)cc1
3. O=C(c1cnc2ccccc2c1)N1CCC(N2CCC(Cc3ccc(Cl)c(Cl)c3)CC2)CC1
4. O=C(c1ccnc2ccccc12)N1CCC(N2CCC(Cc3ccc(Cl)c(Cl)c3)CC2)CC1
5. CO[C@@H]1CN(C2CCN(C(=O)c3ccnc4ccccc34)CC2)CC[C@@H]1Cc1ccc(Cl)c(Cl)c1
6. CC(=O)N[C@@H]1CN(C2CCN(C(=O)c3ccc4ncccc4c3)CC2)CC[C@@H]1Cc1ccc(Cl)c(Cl)c1

Result:
6.00
6.10
6.34
7.42
7.59
6.79
